Molecular target: Tubulin (Bos taurus, UniProt Q6B856+Q862L2+Q862F3)
Assay: Inhibition of bovine brain tubulin polymerization preincubated for 15 mins followed by GTP addition and measured for 20 mins by turbidimetry-based spectrophotometric method
Measured log10(IC50) by item
Each number you see is log10 of IC50, and the unit inside the log is µM.

>  <COMPOUND>
COc1ccc2c(c1O)CCCC(Br)=C2c1cc(OC)c(OC)c(OC)c1

>  <log10(IC50)>
-0.41

$$$$
>  <COMPOUND>
COc1ccc2c(c1CO)CCCC=C2c1cc(OC)c(OC)c(OC)c1

>  <log10(IC50)>
-0.20

$$$$
>  <COMPOUND>
COc1ccc2c(c1C)CCCC(Br)=C2c1cc(OC)c(OC)c(OC)c1

>  <log10(IC50)>
0.69

$$$$
>  <COMPOUND>
COc1ccc2c(c1O)CC=CC=C2c1cc(OC)c(OC)c(OC)c1

>  <log10(IC50)>
-0.32

$$$$
>  <COMPOUND>
COc1ccc2c(c1O)CCCC=C2c1cc(OC)c(OC)c(OC)c1

>  <log10(IC50)>
-0.07

$$$$
>  <COMPOUND>
COc1ccc2c(c1C#N)CCC=C2c1cc(OC)c(OC)c(OC)c1

>  <log10(IC50)>
-0.43

$$$$
>  <COMPOUND>
COc1cc(C2=CC=CCc3c2ccc(OC)c3OP(=O)([O-])[O-])cc(OC)c1OC.[Na+].[Na+]

>  <log10(IC50)>
1.20

$$$$
>  <COMPOUND>
COc1ccc2c(c1C#N)CCCC=C2c1cc(OC)c(OC)c(OC)c1

>  <log10(IC50)>
0.04

$$$$
>  <COMPOUND>
COc1ccc2c(c1O)CCCC(=O)C2(O)c1cc(OC)c(OC)c(OC)c1 (stereo not drawn)

>  <log10(IC50)>
0.08

$$$$
>  <COMPOUND>
COc1ccc2c(c1C=O)CCCC=C2c1cc(OC)c(OC)c(OC)c1

>  <log10(IC50)>
0.51

$$$$

*Q* log10(IC50) lookup needed for `CCOC(=O)c1c(OC)ccc2c1CCCC=C2c1cc(OC)c(OC)c(OC)c1` , thanks.
*A* 0.00

*Q* Entry COc1cc(C2=CC(O)CCc3c2ccc(OC)c3OC)cc(OC)c1OC (stereo not drawn) please
*A* 0.58
